Molecular target: T1, ZFP SBS#1066 (synthetic)
T1 chain: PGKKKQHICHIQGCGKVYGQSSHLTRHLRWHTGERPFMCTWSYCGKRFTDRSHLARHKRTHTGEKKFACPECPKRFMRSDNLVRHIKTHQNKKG
Assay: EMSA
Conditions: tags: MBP fusion
measurement kind: Kd (nM)

# binder, reading
rows = [
    ("GAGGGCGGT (dsDNA) DNA 1: GAGGGCGGT DNA 2: ACCGCCCTC", 0.15),
]

Cited source for all entries: patent US20030068675
